Test system: MS2 coat protein
Test Details: apparent Kd, MS2 coat protein; higher = weaker binding; RNA-MaP array; theophylline 2 mM where present
Test Conditions: designed as: OFF switch for theophylline; no ligand
apparent Kd reference
Enter your answer as a number in nM; do not include the unit.

Below, 3 sequences whose answers are already recorded.
Sequence Chain	Target	Data Value
GAUGAACUAUAUGAUACCAGACAACAUGAGGAUCACCCAUGUGAAUGUCGUCCUCUGCCUGUCCCUUGGCAGCGUAUAGUUUAUC	MS2 coat protein	29.6
AGCCCUGUACUAGAUACCAGCUACAUGAGGAUCACCCAUGUGCGUCAAGACUGACUGUGUAGCCCUUGGCAGCUACUCGCAUGUA	MS2 coat protein	15.7
CGGUUUGUGAUGGAUACCAGCAGUGUGGCUGUUUAUCCUGACAUGAGGAUCACCCAUGUGUGCCCUUGGCAGCUGUUGUGGGCUG	MS2 coat protein	76.5

Please look up its apparent Kd: GAUGAACUAUUUGAUACCAGACUACAUGAGGAUCACCCAUGUGUGUUUAUACUUCUGUCAGUCCCUUGGCAGCAAAUAGUUUAUC
62.5

For AAACUGGGUGUAAAAUAAAUAAUCACUGAUACCAGACUAUUUUAUGUCCCUUGGCAGCAGAAACAUGAGGAUCACCCAUGUAAUA , what is its reported apparent Kd?
20.3

Which value of apparent Kd has been reported for AUUAUCAUGGUCAUUUAUAUUUCGUCAGAUACCAGACUAGAUAUAGUCCCUUGGCAGCUGUUACAUGAGGAUCACCCAUGUUAUU in the records?
124

Bench note: what apparent Kd did CCUCGACAUGAGGAUCACCCAUGUAGAGAUACCAGCCUGUGAGAUGGCCCUUGGCAGCUCAUAUAGGGUACAGGAGUCGUUUUGA show?
23.2

Can you look up the measured apparent Kd of UCUUGGUCCGCAAGGACCUUGAGUUGCGAUACCAGCACGGUAACGUGCCCUUGGCAGCGCACAUGAGGAUCACCCAUGUGGUGUU for me?
261

# lookup: apparent Kd of ACACAUGAGGAUCACCCAUGUGCAAUAGAUACCAGUGACGCGGUGCACCCUUGGCAGCUGUUGCUGAGUGAUGGUUCCCUCGGAA
36.6

Which apparent Kd is listed for UCCUCCUCCGCAAGGAGGAGGAGUUGCGAUACCAGCACGGCAACGUGCCCUUGGCAGCGCACAUGAGGAUCACCCAUGUCAUGUU ?
19.4

Need apparent Kd, item GAGGGUGAAUCUCUGGUCCGUUUGACGGAUACCAGCGAGAGGUAUCGCCCUUGGCAGCCGACGACAUGAGGAUCACCCAUGUUAA
17.9

What does the record list as apparent Kd for AGCCUAUUACAUGAGGAUCACCCAUGUGAUACCAGUCAGGAAACUGACCCUUGGCAGCGCAUGAGGAUCACCCAUGCGCUAGGCA ?
10.1

# query: apparent Kd of entry CAACAAGUAACUGAUACCAGUGUACUGACAUGAGGAUCACCCAUGUUGGGUUUUGUUGUACACCCUUGGCAGCAGAAUCUUGUUG
60.7

----------
System: MS2 coat protein
Test Details: apparent Kd, MS2 coat protein; higher = weaker binding; RNA-MaP array; FMN 200 µM where present
Test Conditions: ligand present: flavin mononucleotide; designed as: OFF switch for flavin mononucleotide
Measurement Type: apparent Kd (nM)
// return numeric value only (unit: nM, not printed)

Recorded results for 5 sequences are shown here.
Sequence Chain	Unit Name	Data Value
GCGUCGAGUGUGAGGAUAUGCUGGUCCUUGGAUCAGCAGAAGGCACAUGAGGAUCACCCAUGUGAAUACGAUGC	nM	136
GCACCUUUAUUUGAACCGAUACGAACAUGAGGAUCACCCAUGUAGGAUAUGCUAAAAGUUGUGUUGCAGAAGGACAUUUAGUGC	nM	8.98
UAGAUGGGAGGAUAUGCAUAGAUACAGAUUCGUGUAGUGCUACAUGAGGAUCACCCAUGUAGAAGGCCCGUCUU	nM	37.6
UGGUUUGGGCUAGAUGCACAGACAUGAGGAUCACCCAUGUCUGAGGAUAUGCGUCAACAUAGGCAGCAGAAGGCAGACAUUCGC	nM	30.5
CGUGCAUAUGUAGGAUAUGGUUAUCUAUGUCUAGUUACUAGACAUAGAUAACCAGAAGGACAUGAGGAUCACCCAUGUAGCACG	nM	17.4

// lookup apparent Kd for UGUCGGAGCAGAGGAUAUUACAUGAGGAUCACCCAUGUAUCAACCAAUAGCUGGAAACAGCAAUGUAAGAAGGCUGCUCCGACA
19.8

Query: apparent Kd; subject: UUAUUUAGUGUGAGGAUAUGCUGGUCCAUAGAUCAGCAGAAGGCACAUGAGGAUCACCCAUGUAAUAUAUUAAU
202

Name the reported apparent Kd value associated with the sequence GGUCACGUAGGAUAUACCUGGGCCUCUGAAUUCGGCAAUUUACAUGAGGAUCACCCAUGUAGAAGGACGAUGGC
97.6

What does the record list as apparent Kd for GGUCGAAAGUAAGGAUAUGCCUAGGAAACCUAGGCAGAAGGUACAUGAGGAUCACCCAUGUUAACGCAAAGCGAAUAAACGACC ?
27.4
